Listing of entries alongside the reported Plant response rating, Nightshade.
- Test system: Nightshade
- method.notes: Test C preemergence
- Format: in vivo
- experimental.conditions: Rate 500 g/ha, scale 0 to 100
I only need the number, thanks.

Illustrative cases are given below, each with its answer.
| compound | target.of.assay | Plant response rating, Nightshade |
| --- | --- | --- |
| CC(C)c1ccn(C2SCN(c3cccc(OC(F)(F)F)c3)C2=O)n1 (centres unmarked) | Nightshade | 100 |
| CC(C)(C)c1ccn(C2CCN(c3cccc(Br)c3)C2=O)n1 (centres unmarked) | Nightshade | 100 |
| CC(C)(C)c1ccn(C2SCN(c3cccc(OC(F)(F)F)c3)C2=O)n1 (centres unmarked) | Nightshade | 100 |

Q. Give the reported Plant response rating, Nightshade for this compound. CCC(C)c1ccn(C2SCN(c3cccc(OC(F)(F)F)c3)C2=O)n1 (centres unmarked)
A. 100

Q. Give the reported Plant response rating, Nightshade for this compound. O=C1C(n2ccc(C3CCCCC3)n2)SCN1c1cccc(OC(F)(F)F)c1 (centres unmarked)
A. 60

----------
- System: smallflower flatsedge (Cyperus difformis)
- method.notes: Test C flooded paddy test
- Type: in vivo
- experimental.conditions: Flooded Paddy; Rate 500 g/ha; scale 0 to 100, 0 no effect, 100 complete control
quantity.kind: Flatsedge plant response rating
I only need the number, thanks.

Illustrative cases are given below, each with its answer.
| compound | Flatsedge plant response rating |
| --- | --- |
| CC1(c2ccn(C3SCN(c4cccc(OC(F)(F)F)c4)C3=O)n2)CC1 (stereo not shown) | 100 |
| CC(C)Oc1cccc(N2CCC(n3ccc(C(C)C)n3)C2=O)c1 (stereo not shown) | 100 |
| CC(C)(C)c1ccn(C2CCN(c3cccc(I)c3)C2=O)n1 (stereo not shown) | 100 |
| Cc1cc(C)nc(N2CCC(n3ccc(C(C)(C)C)n3)C2=O)c1 (stereo not shown) | 100 |
| CCC(C)c1ccn(C2CCN(c3cccc(OC)c3)C2=O)n1 (stereo not shown) | 100 |
| CCCC(C)c1ccn(C2OCN(c3cccc(OC(F)(F)F)c3)C2=O)n1 (stereo not shown) | 100 |
| O=C1C(n2ccc(C3CC3)n2)OCN1c1cccc(C(F)(F)F)c1 (stereo not shown) | 100 |
| O=C1C(n2ccc(C3CC3)n2)SCN1c1cccc(C(F)(F)F)c1 (stereo not shown) | 95 |
| CCC(CC)c1ccn(C2CCN(c3cccc(OC)c3)C2=O)n1 (stereo not shown) | 100 |
| CCCC(C)c1ccn(C2OCN(c3cccc(OC(F)F)c3)C2=O)n1 (stereo not shown) | 90 |

Q. Give the reported Flatsedge plant response rating for this compound. CC(C)(C)c1ccn(C2CCN(c3ccc(F)c(Cl)c3)C2=O)n1 (stereo not shown)
A. 100

Q. Give the reported Flatsedge plant response rating for this compound. CCCCC(CCCC)c1ccn(C2OCN(c3cccc(OC(F)(F)F)c3)C2=O)n1 (stereo not shown)
A. 0

Q. Give the reported Flatsedge plant response rating for this compound. O=C1C(n2ccc(C3CCC3)n2)SCN1c1cccc(C(F)(F)F)c1 (stereo not shown)
A. 100

Q. Give the reported Flatsedge plant response rating for this compound. CC(C)OC(=O)c1cccc(N2CCC(n3ccc(C(C)(C)C)n3)C2=O)c1 (stereo not shown)
A. 90

----------
- System: Surinam grass (Brachiaria decumbens)
- method.notes: Test B postemergence
- Assay type: in vivo
- experimental.conditions: Rate 125 g/ha, scale 0 to 100, 0 no effect, 100 complete control
Listing of entries alongside the reported Plant response rating, Surinam grass.

Illustrative cases are given below, each with its answer.
| compound | quantity.kind | data.value |
| --- | --- | --- |
| CCCC(C)c1ccn(C2CCN(c3cccc(OCC)c3)C2=O)n1 (centres unmarked) | Plant response rating, Surinam grass | 0 |
| CCOc1cccc(N2CCC(n3ccc(C(C)(C)C)n3)C2=O)c1 (centres unmarked) | Plant response rating, Surinam grass | 0 |
| CCC(C)Oc1cccc(N2CCC(n3ccc(C(C)(C)C)n3)C2=O)c1 (centres unmarked) | Plant response rating, Surinam grass | 0 |
| CCCCC(CCCC)c1ccn(C2OCN(c3cccc(C(F)(F)F)c3)C2=O)n1 (centres unmarked) | Plant response rating, Surinam grass | 30 |
| CCC(CC)c1ccn(C2CCN(c3ccc(Cl)c(OC)c3)C2=O)n1 (centres unmarked) | Plant response rating, Surinam grass | 30 |
| CCC(C)c1ccn(C2CCN(c3ccc(Br)c(OC)c3)C2=O)n1 (centres unmarked) | Plant response rating, Surinam grass | 0 |

Q. Give the reported Plant response rating, Surinam grass for this compound. CCCCC(CCCC)c1ccn(C2SCN(c3cccc(C(F)(F)F)c3)C2=O)n1 (centres unmarked)
A. 0

Q. Give the reported Plant response rating, Surinam grass for this compound. CCCC(C)c1ccn(C2CCN(c3ccc(Cl)c(OC)c3)C2=O)n1 (centres unmarked)
A. 30

Q. Give the reported Plant response rating, Surinam grass for this compound. CCC(CC)c1ccn(C2CCN(c3ccc(F)c(C(F)(F)F)c3)C2=O)n1 (centres unmarked)
A. 0

Q. Give the reported Plant response rating, Surinam grass for this compound. COc1cc(N2CCC(n3ccc(C(C)(C)C)n3)C2=O)ccc1Cl (centres unmarked)
A. 30

Q. Give the reported Plant response rating, Surinam grass for this compound. CCOc1cccc(N2CCC(n3ccc(C(C)C)n3)C2=O)c1 (centres unmarked)
A. 70
